B1: library; a variant is named by its letters at N, in order (parent)
chain: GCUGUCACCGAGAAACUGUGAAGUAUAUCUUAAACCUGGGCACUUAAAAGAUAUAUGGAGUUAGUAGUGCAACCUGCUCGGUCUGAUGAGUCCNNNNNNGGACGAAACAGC

# Variants of: B1
# Test: normalized RNA/DNA level with ligand (relative to sTRSVctl = 100) (log10 (% of sTRSVctl)); HEK293T; ligand: cyclic di-GMP (c-di-GMP-II aptamer); ligand concentration (+) RNA-Seq: 1 mM; higher = less ribozyme self-cleavage, higher mRNA level
# Applied conditions: reporter: mCherry (pCS4076), ligand present: yes
Property label: normalized RNA/DNA level with ligand (log10)

                            monomer_sequence  number
 0  GCUGUCACCGAGAAACUGUGAAGUAUAUCUUAAACCUGGGCACUUAAAAGAUAUAUGGAGUUAGUAGUGCAACCUGCUCGGUCUGAUGAGUCCUUAAUAGGACGAAACAGC     1.8
 1  GCUGUCACCGAGAAACUGUGAAGUAUAUCUUAAACCUGGGCACUUAAAAGAUAUAUGGAGUUAGUAGUGCAACCUGCUCGGUCUGAUGAGUCCUAGUGUGGACGAAACAGC    1.81
 2  GCUGUCACCGAGAAACUGUGAAGUAUAUCUUAAACCUGGGCACUUAAAAGAUAUAUGGAGUUAGUAGUGCAACCUGCUCGGUCUGAUGAGUCCUCGCGUGGACGAAACAGC    1.84
 3  GCUGUCACCGAGAAACUGUGAAGUAUAUCUUAAACCUGGGCACUUAAAAGAUAUAUGGAGUUAGUAGUGCAACCUGCUCGGUCUGAUGAGUCCUCCGGUGGACGAAACAGC    1.85
 4  GCUGUCACCGAGAAACUGUGAAGUAUAUCUUAAACCUGGGCACUUAAAAGAUAUAUGGAGUUAGUAGUGCAACCUGCUCGGUCUGAUGAGUCCGUCUAGGGACGAAACAGC    1.79
 5  GCUGUCACCGAGAAACUGUGAAGUAUAUCUUAAACCUGGGCACUUAAAAGAUAUAUGGAGUUAGUAGUGCAACCUGCUCGGUCUGAUGAGUCCCUGCGAGGACGAAACAGC     1.8
 6  GCUGUCACCGAGAAACUGUGAAGUAUAUCUUAAACCUGGGCACUUAAAAGAUAUAUGGAGUUAGUAGUGCAACCUGCUCGGUCUGAUGAGUCCGUUCAUGGACGAAACAGC    1.85
 7  GCUGUCACCGAGAAACUGUGAAGUAUAUCUUAAACCUGGGCACUUAAAAGAUAUAUGGAGUUAGUAGUGCAACCUGCUCGGUCUGAUGAGUCCUCCUCCGGACGAAACAGC    1.91
 8  GCUGUCACCGAGAAACUGUGAAGUAUAUCUUAAACCUGGGCACUUAAAAGAUAUAUGGAGUUAGUAGUGCAACCUGCUCGGUCUGAUGAGUCCAUUGCCGGACGAAACAGC    1.92
 9  GCUGUCACCGAGAAACUGUGAAGUAUAUCUUAAACCUGGGCACUUAAAAGAUAUAUGGAGUUAGUAGUGCAACCUGCUCGGUCUGAUGAGUCCCUCCUUGGACGAAACAGC    1.79
10  GCUGUCACCGAGAAACUGUGAAGUAUAUCUUAAACCUGGGCACUUAAAAGAUAUAUGGAGUUAGUAGUGCAACCUGCUCGGUCUGAUGAGUCCAAGGGCGGACGAAACAGC    1.75
